- procedure text: Probe fluorescence ratio response to linolenic acid relative to ADIFAB2
- Format: binding
- condition label: response relative to ADIFAB2
property label: DR/DR LNA

18L, 72A (protein, listed as Rattus norvegicus, PEPTIDE (1)...(131) wild-type rat intestinal fatty acid binding protein) AFDGTWKVDRNENYEKFLEKMGINVVKRKLGAHDNLKLTITQEGNKFTVKESSNFRNIDVVFELGVDFAYSAADGTELTGTWTMEGNKLVGKFKRVDNGKELIAVREISGNELIQTYTYEGVEAKRIFKKE ... 1.544
34A, 72A (protein, listed as Rattus norvegicus, PEPTIDE (1)...(131) wild-type rat intestinal fatty acid binding protein) AFDGTWKVDRNENYEKFMEKMGINVVKRKLGAHANLKLTITQEGNKFTVKESSNFRNIDVVFELGVDFAYSAADGTELTGTWTMEGNKLVGKFKRVDNGKELIAVREISGNELIQTYTYEGVEAKRIFKKE ... 0.57
34Q, 72A (protein, listed as Rattus norvegicus, PEPTIDE (1)...(131) wild-type rat intestinal fatty acid binding protein) AFDGTWKVDRNENYEKFMEKMGINVVKRKLGAHQNLKLTITQEGNKFTVKESSNFRNIDVVFELGVDFAYSAADGTELTGTWTMEGNKLVGKFKRVDNGKELIAVREISGNELIQTYTYEGVEAKRIFKKE ... 0.48
